Origin of the recorded values: ChEMBL document CHEMBL4359869

METHOD: Prodrug activation in human A549 cells assessed as increase in GSH-mediated PpIX production at 100 uM incubated for 4 hrs by fluorescence based assay relative to 5-ALA
Assay type: cell-based
PARTICULARS: a549, 4 h
PROPERTY MEASURED: fold change (FC)

Value of measured fold change (FC) for the entry COC(=O)CCC(=O)CNC(=O)OCCSSCCOC(=O)NCC(=O)CCC(=O)OC : 3 to 40

====

METHOD: Prodrug activation in human HCT116 cells assessed as increase in GSH-mediated PpIX production at 100 uM incubated for 4 hrs by fluorescence based assay relative to 5-ALA
Format: cell-based
PARTICULARS: hct-116, 4 h
PROPERTY MEASURED: fold change (FC)

Value of measured fold change (FC) for the entry COC(=O)CCC(=O)CNC(=O)OCCSSCCOC(=O)NCC(=O)CCC(=O)OC : 3 to 40

====

METHOD: Prodrug activation in human HeLa cells assessed as increase in GSH-mediated PpIX production at 100 uM incubated for 4 hrs by fluorescence imaging analysis
Assay type: cell-based
PROPERTY MEASURED: Drug metabolism

COC(=O)CCC(=O)CNC(=O)OCCCCCCOC(=O)NCC(=O)CCC(=O)OC ... Metabolite_Notdetected
NCC(=O)CCC(=O)O ... Metabolite_Notdetected
COC(=O)CCC(=O)CN [METHYL AMINOLEVULINATE] ... Metabolite_Notdetected

====

METHOD: n-octanol/water partition coefficient, log P of the compound at 1M incubated for 0.5 hrs by HPLC analysis
Format: physicochemical
PROPERTY MEASURED: logP at 0.5 h
Enter a number only.

Would you please look over these solved cases?
NCC(=O)CCC(=O)O ... -1.52
COC(=O)CCC(=O)CNC(=O)OCCSSCCOC(=O)NCC(=O)CCC(=O)OC ... 0.84

Value of measured logP at 0.5 h for the entry COC(=O)CCC(=O)CN [METHYL AMINOLEVULINATE] : -0.94

====

METHOD: Prodrug activation in human A375 cells assessed as increase in GSH-mediated PpIX production at 100 uM incubated for 4 hrs by fluorescence based assay relative to 5-ALA
Assay type: cell-based
PARTICULARS: a-375, 4 h
PROPERTY MEASURED: fold change (FC)

Value of measured fold change (FC) for the entry COC(=O)CCC(=O)CNC(=O)OCCSSCCOC(=O)NCC(=O)CCC(=O)OC : 3 to 40
